target under test: Oxysterols receptor LXR-beta (Homo sapiens)
procedure summary: ATG_LXRb_TRANS: Attagene TRANS-FACTORIAL HepG2 Assay for human Liver X Receptor beta (LXRb) (AID 2282981)
condition description: HepG2 Attagene TRANS GAL4-LXRb reporter, mRNA
Results filed as inconclusive are left out. Calls of active or inactive are those of the source. Rule for the calls: active = hit-call score of the fitted dose curve at least 0.9, where 1 is the maximum; inconclusive = response in the unintended direction; inactive = score below 0.9.
Response enum: True (active), False (inactive)

Cc1cc(NC(=O)C(=O)O)cc(C)c1Oc1ccc(O)c2c1CCC2 ... False

Fill in: this test's call for FC(F)(F)C(F)(F)C(F)(F)C(F)(F)C(F)(F)C(F)(F)CCI is ___
False

Just curious, what result did CCCCCCCCCCCCCCCC get here?
False

* * *

Read-out: Lipoprotein lipase (LPL), LPL (gene 4023)
procedure summary: LTEA_HepaRG_LPL: Life Technologies and Expression Analysis (LTEA) Assay for Lipoprotein lipase (LPL) using HepaRG (AID 2283515)
condition description: mRNA level, 48 h; actives raise or lower the signal
Active and inactive are the calls of the source. Rule for the calls: active = hit-call score of the fitted dose curve at least 0.9, where 1 is the maximum; inactive = score below 0.9.
Can you answer with just one of these options? active, inactive

# fetch the recorded call for Nc1nc(N)c2nc(CNc3ccc(C(=O)N[C@@H](CCC(=O)O)C(=O)O)cc3)cnc2n1 here
inactive

So what was the verdict on CCCCCCC(=O)OCC in this test?
inactive

Call for entry COc1cc(-c2nc(NC(=O)c3cc4cc(C)cc(C)c4n3CC(=O)O)sc2CCC2CCCCC2)c(OC)cc1Cl :
active

What outcome does the record of this test show for COc1ccc(C)cc1N ?
inactive

Tell me the assay call for O=C(OCCCCCOC(=O)c1ccccc1)c1ccccc1 please.
active

Call for entry Cc1nc(C)nc(N2C[C@@H](C)N(c3ccnc([C@@H](C)O)n3)[C@@H](C)C2)n1 :
inactive

Would you mind telling me which call this test gave CCCCCCCCCCCCCCCCCC(=O)O ?
inactive

Name the outcome recorded for Cc1cc(=O)[nH]c(=S)[nH]1 in the assay.
inactive

Tell me the recorded outcome of this test for CCOC(=O)CCC(=O)OCC .
active

Which outcome was entered for the compound O=C(O)Cc1ccccc1Nc1c(Cl)cccc1Cl in this test?
inactive

So what was the verdict on Clc1cc(Cl)c(Cl)cc1Cl in this test?
inactive

Could you please tell me the result logged for NC(=O)Cn1c(=O)cc(CCN2CCN(c3nccc4sccc34)CC2)c2ccc(F)cc21 in this assay?
active

I would be grateful if you could indicate the recorded call for CCCCCCCCCCCC(=O)OC .
inactive

Returns: the outcome recorded for c1cc(-c2ccncc2)ccn1 in this assay.
inactive

# outcome recorded in this test, key = Cc1nc(-c2ccc3c(c2)CCN(CCC2CCC(NC(=O)/C=C/c4ccc(F)cc4)CC2)CC3)no1 (stereo unspecified)
inactive

Given Oc1ccc2c(c1)OC[C@@H](N1CCC(O)(c3ccc(F)cc3)CC1)[C@H]2O , state the outcome it received in this test.
inactive

What did the test return for COC(=O)c1ccc(O)cc1 ?
inactive

# outcome recorded in this test, key = C=CCc1ccc(O)c(OC)c1
inactive

Called result for O=c1[nH]cc(F)c(=O)[nH]1
active

Which outcome was assigned to Cc1ccc2ncccc2c1 in this test?
inactive

* * *

Read-out: Apolipoprotein A-V (APOA5) gene, APOA5 (gene 116519)
procedure summary: LTEA_HepaRG_APOA5: Life Technologies and Expression Analysis (LTEA) Assay for Apolipoprotein A-V (APOA5) gene using HepaRG (AID 2283474)
condition description: mRNA level, 48 h; actives raise or lower the signal
Method: LTEA_HepaRG is a cell based, multiplexed-readout assay that uses HepaRG, a human liver cell line, with measurements taken at 48 hours after chemical dosing on a 96-well plate.LTEA_HepaRG_APOA5 is one of 102 assay component(s) measured in the LTEA HepaRG cell culture assay. It is a marker of Steatosis.Data from the assay component LTEA_HepaRG_APOA5 was analyzed into 1 endpoint. […]
Active and inactive are the calls of the source. The calls were made as follows: active = hit-call score of the fitted dose curve at least 0.9, where 1 is the maximum; inactive = score below 0.9.
// classify into active, inactive

CCOc1ccc2c(c1)C(C)=CC(C)(C)N2 ... inactive
CCCCCCCCCCCC(=O)OC ... inactive
CCCCCC(=O)O ... inactive
Cc1ccc(Cl)cc1 ... inactive
CNCc1cc(F)ccc1Oc1ccc(Cl)c(Cl)c1 ... inactive

# fetch the recorded call for CC(C)c1ccc(C(=O)N=C(N)N)cc1S(C)(=O)=O here
active

Hi, sorry to bother you, what did the test record for Cc1cc(=O)[nH]c(=S)[nH]1 ?
inactive

Entry CC=Cc1ccc(O)c(OC)c1 : call = ?
inactive

Tell me the assay call for O=C(O)Cc1ccccc1Nc1c(Cl)cccc1Cl please.
inactive

* * *

procedure summary: BSK_CASM3C_Proliferation: Cell Proliferation Assessment in the BioMAP Diversity Plus: CASM3C Assay (AID 2283047);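 note: sulforhodamine B total protein stain as relative cell number at 560 nm; sub-confluent cells exposed 48 h before staining; fitted both ways against DMSO so gain or loss of cell number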
condition description: primary human coronary artery smooth muscle cells
Calls of active or inactive are those of the source. The calls were made as follows: active = hit-call score of the fitted dose curve at least 0.9, where 1 is the maximum; inactive = score below 0.9.
Output constraint: value belongs to Yes = active, No = inactive

Some entries whose results are on file:
Oc1ccc2c(c1)OC[C@@H](N1CCC(O)(c3ccc(F)cc3)CC1)[C@H]2O ... No
Cc1nc(C)nc(N2C[C@@H](C)N(c3ccnc([C@@H](C)O)n3)[C@@H](C)C2)n1 ... No
CC(CO)OC(C)CO (stereo unspecified) (tested in a mixture with another compound) ... No
CC(C)c1ccc(C(=O)N=C(N)N)cc1S(C)(=O)=O ... No
COc1cc(-c2nc(NC(=O)c3cc4cc(C)cc(C)c4n3CC(=O)O)sc2CCC2CCCCC2)c(OC)cc1Cl ... Yes
NCC1(Cc2noc(=O)[nH]2)CCCCC1 ... No

For the next question, use this molecule.
Recorded test call requested for CCCCCCCCCCCCCCCCCC(=O)O
Yes

* * *

procedure summary: APR_HepG2_MitoMass_72hr: Apredica 72-hour HepG2 Assay for Mitochondrial Mass (AID 2282924);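 note: MitoTracker Red CMXRos stain intensity per cell imaged as mitochondrial mass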
condition description: high-content imaging, actives raise or lower the signal
Activity calls are given as the source filed them. Rule for the calls: active = hit-call score of the fitted dose curve at least 0.9, where 1 is the maximum; inactive = score below 0.9.
Choose one outcome from this list and give only that: true (1) (active), false (0) (inactive)

Cc1nc(C)nc(N2C[C@@H](C)N(c3ccnc([C@@H](C)O)n3)[C@@H](C)C2)n1 ... false (0)
CCOC(=O)CCC(=O)OCC ... false (0)
CCCCCCCCCCC ... false (0)

Here is another compound to look at.
Query: recorded result category for CCCCCCCCCCCCCCCCCC(=O)O in this test
false (0)

* * *

Read-out: Interleukin-1 alpha (IL1a), IL1A (gene 3552)
procedure summary: BSK_BE3C_IL1a: BioMAP Diversity Plus: BE3C Assay for Interleukin-1 alpha (IL1a) Biomarker Activity (AID 2283016)
condition description: primary human bronchial epithelial cells; actives raise or lower the signal
Active and inactive are the calls of the source. How the source made its calls: active means hit-call score of the fitted dose curve at least 0.9, where 1 is the maximum; inactive means score below 0.9.
Assign a class; possible classes are true (1) (active), false (0) (inactive)

Record excerpt, results attached:
FC(F)(F)C(F)(F)C(F)(F)C(F)(F)C(F)(F)C(F)(F)CCI ... false (0)
CCCCOC(=O)CCCCCCCCC(=O)OCCCC ... false (0)
O=C(N[C@@H](Cc1ccccc1)[C@@H](O)C(=O)N1C[C@@H](O)[C@@H](O)C1)c1cc2cc(Cl)ccc2[nH]1 ... false (0)
O=[N+]([O-])C(CO)(CO)CO ... false (0)
CC(=O)OC/C=C(\C)CCC=C(C)C ... false (0)

Could you check what this test reported for CNCc1cc(F)ccc1Oc1ccc(Cl)c(Cl)c1 ?
false (0)

Could you check what this test reported for CN[C@H]1CC[C@@H](c2ccc(Cl)c(Cl)c2)c2ccc(S(N)(=O)=O)cc21 ?
true (1)

What was the test verdict on CCCCCC(=O)O ?
false (0)

Lab log entry: Cc1ccccc1Cl — outcome as called in the assay?
false (0)

Please let me know the test result on file for CN1CCN(Cc2cc(-c3ccc4[nH]c(=O)oc4c3)co2)[C@@H](c2ccc(F)cc2)C1 .
false (0)

Entry C[C@]12C=CC(=O)C=C1CC[C@@H]1[C@@H]2C(=O)C[C@@]2(C)[C@H]1CC[C@]2(O)C(=O)CO : call = ?
false (0)

What call does the record list for CC(=O)OCCOCCOCCOC(C)=O ?
false (0)

* * *

Read-out: Collagen III, COL3A1 (gene 1281)
procedure summary: BSK_hDFCGF_CollagenIII: BioMAP Diversity Plus: hDFCGF Assay for Collagen III Biomarker Activity (AID 2283056)
condition description: primary human foreskin fibroblasts; actives raise or lower the signal
Activity calls are given as the source filed them. How the source made its calls: active means hit-call score of the fitted dose curve at least 0.9, where 1 is the maximum; inactive means score below 0.9.
Respond with a class label; see active, inactive

CCCCCCCCCCCC(=O)OC ... inactive

Hi team, can someone confirm the assay call for COc1ccc(S(=O)(=O)N2C(=O)[C@@](c3ccccc3OC)(N3C[C@H](O)C[C@H]3C(=O)N(C)C)c3cc(Cl)ccc32)c(OC)c1 ?
inactive

What is the recorded call for this compound in the test? C[Si]1(C)O[Si](C)(C)O[Si](C)(C)O[Si](C)(C)O1
inactive

Give the logged outcome of this assay for the following compound: CCOC(=O)CCC(=O)OCC
inactive
